Recorded values, source ChEMBL document CHEMBL6083261.

Exercise: for every item that follows, state its recorded pIC50.
# system: Replicase polyprotein 1ab (Severe acute respiratory syndrome coronavirus 2, UniProt P0DTD1)
# test-summary: Inhibition of SARS-CoV-2 N/C terminal 6his tagged 3CL protease extracted from Escherichia coli BL21(DE3) using CA-AVLQSGFR-Lys(Dnp)-Lys-NH2 as fluorescent substrate preincubated for 1 hr followed by substrate addition and measured after 20 mins by FRET analysis
The read-out pIC50 is expressed as -log10 of concentration in moles per litre.

Briefly, pIC50 measured for S=C(SSc1ccccc1)N1CCCC1 : 6.40

Briefly, pIC50 measured for COc1ccc(SSC(=S)N2CCC(O)CC2)cc1 : 6.64

Briefly, pIC50 measured for COC(=O)C1CCCN1C(=S)SSc1ccccc1 (stereo not drawn) : 6.27

Briefly, pIC50 measured for S=C(SSC(=S)N1CCCCC1)N1CCCCC1 [BIS(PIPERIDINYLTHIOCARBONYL)DISULFIDE] : 5.83

Briefly, pIC50 measured for OC1CCN(C(=S)SSc2ccc(F)cc2)CC1 : 6.72

Briefly, pIC50 measured for COC(=O)CCSSC(=S)N1CCC(O)CC1 : 6.33

Briefly, pIC50 measured for OC1CCN(C(=S)SSc2ccccc2)CC1 : 6.46

Briefly, pIC50 measured for Oc1ccc(SSC(=S)N2CCC(O)CC2)cc1 : 6.52

Briefly, pIC50 measured for S=C(SSc1ccccc1)N1CCCCC1 : 6.19

Briefly, pIC50 measured for S=C(SSC(=S)N1CCOCC1)N1CCOCC1 : 5.91

Briefly, pIC50 measured for CCN(CC)C(=S)SSc1ccccc1 : 2.97

Briefly, pIC50 measured for S=C(SSc1ccccc1)N1CCOCC1 : 6.18

Briefly, pIC50 measured for OC1CCN(C(=S)SSCc2ccccc2)CC1 : 6.60

====

# system: Replicase polyprotein 1ab (Severe acute respiratory syndrome coronavirus 2)
# test-summary: Inhibition of SARS-CoV-2 N/C terminal 6his tagged 3CL protease extracted from Escherichia coli BL21(DE3) using CA-AVLQSGFR-Lys(Dnp)-Lys-NH2 as fluorescent substrate preincubated for 10 mins followed by substrate addition and measured every 10 sec for 10 mins in presence of DTT by FRET analysis relative to control
# Set-up: concentration or dose not given beside the values
# run-parameters: time 20.0 min
Exercise: for every item that follows, state its recorded inhibition.

GET /values?item= O=[N+]([O-])c1ccc(SSC(=S)N2CCC(O)CC2)cc1 &system= Replicase polyprotein 1ab (Severe acute respiratory syndrome coronavirus 2) returns inhibition: 60%

GET /values?item= COc1ccc(SSC(=S)N2CCC(O)CC2)cc1 &system= Replicase polyprotein 1ab (Severe acute respiratory syndrome coronavirus 2) returns inhibition: 60%

GET /values?item= Oc1ccc(SSC(=S)N2CCC(O)CC2)cc1 &system= Replicase polyprotein 1ab (Severe acute respiratory syndrome coronavirus 2) returns inhibition: 60%

GET /values?item= OC1CCN(C(=S)SSc2ccccc2)CC1 &system= Replicase polyprotein 1ab (Severe acute respiratory syndrome coronavirus 2) returns inhibition: 60%

GET /values?item= OC1CCN(C(=S)SSC(=S)N2CCC(O)CC2)CC1 &system= Replicase polyprotein 1ab (Severe acute respiratory syndrome coronavirus 2) returns inhibition: 60%

GET /values?item= OC1CCN(C(=S)SSc2ccc(F)cc2)CC1 &system= Replicase polyprotein 1ab (Severe acute respiratory syndrome coronavirus 2) returns inhibition: 60%

GET /values?item= OC1CCN(C(=S)SSCc2ccccc2)CC1 &system= Replicase polyprotein 1ab (Severe acute respiratory syndrome coronavirus 2) returns inhibition: 60%

GET /values?item= OC1CCN(C(=S)SSc2ccc(C(F)(F)F)cc2)CC1 &system= Replicase polyprotein 1ab (Severe acute respiratory syndrome coronavirus 2) returns inhibition: 60%
